experimental-target: T1, Peptide A (human PAR-2), N-terminal biotinylated (Human, N-terminal biotin via G4S linker)
T1 construct: also called Peptide A N-Term
T1 peptide: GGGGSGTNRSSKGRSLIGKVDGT
protocol-details: peptide ELISA titration
quantity-name: EC50 (nM)
Response body: numeric value in nM, unit text excluded.

binder	unit-descriptor	EC50
H4H588N (antibody, human IgG4, V domains shown, also called H2M588N variable regions) VH: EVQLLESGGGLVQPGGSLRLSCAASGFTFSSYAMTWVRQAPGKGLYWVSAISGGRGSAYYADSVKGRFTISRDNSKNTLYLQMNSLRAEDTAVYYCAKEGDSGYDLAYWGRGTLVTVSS VL: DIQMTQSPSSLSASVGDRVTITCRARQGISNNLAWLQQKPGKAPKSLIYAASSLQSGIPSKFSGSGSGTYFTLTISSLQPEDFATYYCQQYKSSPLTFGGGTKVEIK	nM	0.019
H4H578P (antibody, human IgG4, V domains shown, also called H1H578P variable regions) VH: QVQLVESGGGVVQPGMSLRLSCAASGFTFRRYGMHWVRQAPGKGLEWVAVIWYDGSNKYYVDSVKGRFTISRDNSKNTLYLQMNSLRAEDTAVYYCASEITVGDWFDPWGQGTLVTVSS VL: AIQMTQSPSSLSASVGDRVTITCRASQGIRNDLGWYQQKPGKAPKLLIYAASSLHSGVPSRFSGSGSGTDFTLTISSLQPEDFATYYCLQDFNYPLTFGGGTKVEIK	nM	0.062
H4H583P (antibody, human IgG4, V domains shown, also called H1H583P variable regions) VH: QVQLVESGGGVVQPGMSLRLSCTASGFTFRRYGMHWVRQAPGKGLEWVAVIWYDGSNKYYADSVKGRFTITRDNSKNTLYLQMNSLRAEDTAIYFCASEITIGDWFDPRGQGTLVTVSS VL: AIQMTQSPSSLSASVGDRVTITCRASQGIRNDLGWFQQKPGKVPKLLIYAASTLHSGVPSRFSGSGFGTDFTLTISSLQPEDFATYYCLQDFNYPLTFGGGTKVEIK	nM	0.015
H4H618N (antibody, human IgG4, V domains shown, also called H2M618N variable regions) VH: EVQLLESGGGLVQPGGSLRLSCAASGFTFRSYTMTWVRQAPGKGLDWVSGITDSGAGTYYGDSVKGRFTISRDNSKNTLYLQMNSLRAEDTAVYYCVKEGDSGYDLDYWGQGTLVTVSS VL: DIQMTQSPSSLSASVGDRVTITCRASQGISTYLAWLQQKPGKAPKSLIYATSSLQSGVPSKFSGSRSGTDFTLTISSLQPEDFATYYCQQYKSSPLTFGGGTKVEIK	nM	0.021

// switching to the query binder
Field request: EC50 | item: H4H580P (antibody, human IgG4, V domains shown, also called H1H580P variable regions) VH: QVQLVESGGGVVQPGRSLRLSCVASGFTFSRYGMHWVRQAPGKGLEWVVVISYDGINKYYADSVKGRFTISRDNSKNTVYLQMNSLRAEDTAVYHCAKGDFWSGYFDYWGQGTLVTVSS VL: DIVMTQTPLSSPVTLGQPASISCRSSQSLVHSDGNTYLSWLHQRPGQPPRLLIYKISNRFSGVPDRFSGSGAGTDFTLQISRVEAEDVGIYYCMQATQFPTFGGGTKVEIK
0.16
